These entries and their values trace back to patent US11274079B2.

# test system: M3 receptor (Homo sapiens, UniProt P20309)
# Construct: HT-29 cell model endogenously highly expressing the M3 receptor; endogenous in cells
# Sequence (P20309 whole entry): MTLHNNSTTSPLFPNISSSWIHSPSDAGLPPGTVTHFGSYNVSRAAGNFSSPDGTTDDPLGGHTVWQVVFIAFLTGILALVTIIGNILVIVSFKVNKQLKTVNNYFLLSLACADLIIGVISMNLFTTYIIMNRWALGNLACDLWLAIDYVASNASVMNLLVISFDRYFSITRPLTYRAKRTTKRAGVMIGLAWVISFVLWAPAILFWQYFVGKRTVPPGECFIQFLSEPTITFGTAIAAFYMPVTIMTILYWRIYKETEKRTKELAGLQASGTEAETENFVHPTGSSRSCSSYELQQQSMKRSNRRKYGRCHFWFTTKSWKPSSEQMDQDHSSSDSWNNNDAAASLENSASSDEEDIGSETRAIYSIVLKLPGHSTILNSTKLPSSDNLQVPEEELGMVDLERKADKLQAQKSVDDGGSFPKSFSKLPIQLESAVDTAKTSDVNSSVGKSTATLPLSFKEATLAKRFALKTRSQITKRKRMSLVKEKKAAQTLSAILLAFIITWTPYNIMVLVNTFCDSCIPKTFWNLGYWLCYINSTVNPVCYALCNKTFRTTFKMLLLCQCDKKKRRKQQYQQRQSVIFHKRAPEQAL
# protocol text: DMR assay, antagonism of acetylcholine in HT-29 cells endogenously expressing the M3 receptor
# experimental context: HT-29 cells, DMR, acetylcholine 16 μM, 1 h pretreatment, time point 30 min
measurement kind: IC50 (µM)

INSERT INTO measurements (molecule, measurement_kind, obs_value) VALUES
  ('COc1ccccc1C(CC1CCCCN1C)c1ccccc1 (centres unmarked) [II-17]', 'IC50', 3.42),
  ('Cc1ccc(OC(=O)c2ccccc2)c(C(CC2CCCC[N+]2(C)C)c2ccccc2)c1 (centres unmarked) [I-25]', 'IC50', 2.31),
  ('C[N+]1(C)CCCCC1CC(c1ccccc1)c1ccc(F)cc1O (centres unmarked) [I-8]', 'IC50', 0.0972);

I. Cc1ccc(O)c(C(CC2CCCC[N+]2(C)CCCOc2ccccc2)c2ccccc2)c1.[Br-] (racemic) [I-4a-PrOPh]
II. Cc1ccc(O)c(C(CC2CCCC[N+]2(C)C)c2ccccc2F)c1 (centres unmarked) [I-7]
Please tell me which of the two, I or II , has the higher reported IC50 value. Which one? Tell me its label.
I

----------
# test system: M3 receptor (Homo sapiens)
# Construct: HT-29 cell model endogenously highly expressing the M3 receptor; endogenous in cells; host or cells: HT-29
# protocol text: DMR assay, antagonism of acetylcholine in HT-29 cells endogenously expressing the M3 receptor
# Assay type: cell-based
# experimental context: HT-29 cells, DMR, acetylcholine 16 μM, 1 h pretreatment, time point 30 min
measurement kind: IC50 (nM)

Field: example entries. Status: answers known.
INSERT INTO results (molecule, measurement_kind, obs_value) VALUES
  ('CN1CCCCC1CC(c1ccccc1)c1cc(O)ccc1O (stereo not shown)', 'IC50', 370),
  ('Cc1ccc(C(CC2CCCCN2C)c2cc(C)ccc2O)cc1 (stereo not shown)', 'IC50', 112),
  ('C[N+]1(C)CCCCC1CC(c1ccccc1O)c1ccccc1O (stereo not shown) [I-3-I]', 'IC50', 6.9),
  ('C[N+]1(C)CCCCC1CC(c1ccccc1)c1cc(F)ccc1O (single isomer, unassigned) [I-10b-2]', 'IC50', 164),
  ('Cc1ccc(O)c(C(CC2CCCC[N+]2(C)C)c2ccccc2)c1 (stereo not shown) [I-4a-2-Br]', 'IC50', 1210);

I. CCc1cccc(C(CC2CCCCN2C)c2cc(C(C)C)cc(C)c2O)c1 (stereo not shown)
II. CCCc1ccc(O)c(C(CC2CCCCN2C)c2ccccc2)c1 (stereo not shown)
III. CCCCCOc1ccc(O)c(C(CC2CCCCN2C)c2ccccc2)c1 (stereo not shown)
IV. Cc1ccc(O)c(C(CC2CCC[N+]2(C)C)c2ccccc2)c1 (stereo not shown)
Sort by IC50, descending. Response format: the labels, sorted as the prompt asks.
III, I, II, IV
(III: 620 nM, I: 371 nM, II: 110 nM, IV: 29.9 nM)

----------
# test system: M1 receptor (Homo sapiens)
# Sequence (P11229 whole entry): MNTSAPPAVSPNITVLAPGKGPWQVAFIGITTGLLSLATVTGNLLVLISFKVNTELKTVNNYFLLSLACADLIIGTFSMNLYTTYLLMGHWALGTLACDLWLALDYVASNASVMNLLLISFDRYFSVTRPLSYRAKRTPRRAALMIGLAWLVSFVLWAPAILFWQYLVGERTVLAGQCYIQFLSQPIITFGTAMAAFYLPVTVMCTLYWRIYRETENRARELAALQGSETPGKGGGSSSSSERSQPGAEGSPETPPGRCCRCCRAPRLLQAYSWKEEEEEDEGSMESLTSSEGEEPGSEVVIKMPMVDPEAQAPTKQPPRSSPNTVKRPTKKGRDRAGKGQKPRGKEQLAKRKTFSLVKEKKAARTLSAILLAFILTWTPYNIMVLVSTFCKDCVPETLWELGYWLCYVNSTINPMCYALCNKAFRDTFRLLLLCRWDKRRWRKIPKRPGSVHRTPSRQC
# protocol text: DMR assay, antagonism of acetylcholine in CHO-K1 cells stably transfecting the M1 receptor
# experimental context: CHO-K1-M1 cells, DMR, acetylcholine 1 μM, 1 h pretreatment, time point 5 min
pIC50: −log10 of the molar value. Counter-ions that a name gives are not always drawn.
measurement kind: pIC50

INSERT INTO measurements (compound, measurement_kind, obs_value) VALUES
  ('Cc1ccc(O)c(C(CC2CCCC[N+]2(C)C)c2ccccc2)c1 (stereo not shown) [I-4b-1-Br]', 'pIC50', 7.32),
  ('CCc1ccc(O)c(C(CC2CCC[N+]2(C)C)c2ccccc2)c1 (stereo not shown)', 'pIC50', 7.05),
  ('CN1CCCCC1CC(c1ccccc1O)c1ccccc1O (stereo not shown) [I-3-Cl, Hydrochloride]', 'pIC50', 6.40),
  ('Cc1ccc(OC(=O)C(C)C)c(C(CC2CCCC[N+]2(C)C)c2ccccc2)c1 (stereo not shown)', 'pIC50', 5.60),
  ('C[N+]1(C)CCCCC1CC(c1ccccc1)c1ccccc1O.[Br-] (stereo not shown)', 'pIC50', 8.06);

I. CCCc1ccc(O)c(C(CC2CCCC[N+]2(C)C)c2ccccc2)c1 (stereo not shown)
II. CN1CCCCC1CC(c1ccccc1)c1cc(F)ccc1O (single isomer, unassigned) [II-10a]
Please tell me which of the two, I or II , has the higher reported pIC50 value. Which one? Tell me its label.
II
